Measured pIC50 values are reported for all entries that follow.
# experimentalTarget: hNaV1.1 (Homo sapiens)
Where a SMILES comes first, the peptide text is derived from it. Bridges are numbered along the chain shown (N, C = ends).
Keep it numeric: pIC50 is minus log10 of the concentration in mol/L.

C[C@@H]1NC(=O)[C@H](CCCCN)NC(=O)[C@H](CCCNC(=N)N)NC(=O)[C@H](CCCNC(=N)N)NC(=O)[C@@H](N)CSSC[C@@H](C(N)=O)NC(=O)[C@H](CCCNC(=N)N)NC(=O)[C@H](CC(N)=O)NC(=O)[C@H](Cc2c[nH]c3ccccc23)NC(=O)[C@H](CCCNC(=N)N)NC1=O [PnCS1[W4K], CRRKARWNRC ^*] (H-CRRKARWNRC-NH2; disulfide 1-10); 6.40

Inquiry: Please report the measured pIC50 for C[C@@H]1NC(=O)[C@H](Cc2c[nH]c3ccccc23)NC(=O)[C@H](CCCNC(=N)N)NC(=O)[C@H](CCCNC(=N)N)NC(=O)[C@@H](N)CSSC[C@@H](C(N)=O)NC(=O)[C@H](CCCNC(=N)N)NC(=O)[C@H](CC(N)=O)NC(=O)[C@H](Cc2ccc(O)cc2)NC(=O)[C@H](CCCNC(=N)N)NC1=O [PnCS1[W7Y], CRRWARYNRC ^*] (H-CRRWARYNRC-NH2; disulfide 1-10)
Reply text: 5.66
